biological target: ALK2 (Mus musculus); construct: The C2C12 cell line was selected for the measurement of ALK2 activity using BMP6 as the agonist; host or cells: C2C12; test: HTRF pSMAD1 cell-based ALK2 assay (C2C12 cells, BMP6 as agonist); settings: cell-based assay, BMP6; read-out: Cell IC50 BMP6
Sequence (P37172 21-509): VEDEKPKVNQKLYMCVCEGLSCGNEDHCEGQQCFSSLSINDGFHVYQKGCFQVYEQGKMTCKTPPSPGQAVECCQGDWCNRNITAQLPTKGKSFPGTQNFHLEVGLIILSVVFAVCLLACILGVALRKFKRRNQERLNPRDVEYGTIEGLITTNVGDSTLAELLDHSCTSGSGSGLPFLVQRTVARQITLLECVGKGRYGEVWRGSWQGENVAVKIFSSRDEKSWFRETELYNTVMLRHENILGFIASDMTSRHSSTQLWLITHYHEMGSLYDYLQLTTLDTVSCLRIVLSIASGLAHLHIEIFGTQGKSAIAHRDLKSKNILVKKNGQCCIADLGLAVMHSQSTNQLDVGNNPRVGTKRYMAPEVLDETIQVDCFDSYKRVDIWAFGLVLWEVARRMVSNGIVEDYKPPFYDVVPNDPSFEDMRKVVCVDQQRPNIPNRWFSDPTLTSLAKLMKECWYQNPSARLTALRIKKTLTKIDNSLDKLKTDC
Overview of recorded pIC50 for various molecules
Quick note: pIC50 means taking -log10 of the concentration in moles per liter.

Worked cases, answers included:
>>> number("C[C@@H]1CNC[C@H](C)N1c1ccc(-c2cnc3c(-c4cccc(C#N)c4)cnn3c2)cc1 [Compound 69]")
5.65
>>> number("CS(=O)(=O)c1cccc(-c2cnn3cc(-c4ccc(C5CCNCC5)cc4)cnc23)c1 [Compound 94]")
6.37

Request: So what's the measured pIC50 for this one? Cc1ccc(S(C)(=O)=O)cc1-c1cnn2cc(-c3ccc(N4[C@H](C)CNC[C@@H]4C)cc3)cnc12 [Compound 116]
Response: 6.50

* * *

Biological target: ALK2 (Mus musculus)
Construct: The C2C12 cell line was selected for the measurement of ALK2 activity using BMP6 as the agonist; host or cells: C2C12
Test: HTRF pSMAD1 cell-based ALK2 assay (C2C12 cells, BMP6 as agonist)
Settings: HTRF assay, BMP6 as agonist, C2C12 cells; read-out: BMP6 HTRF
Description: 2. HTRF Cell-Based ALK1 and ALK2 Assays in 384-Well Plate Format We have developed a cell based ALK1 kinase assay and a cell-based ALK2 assay. The BAOEC cell line was employed for the measurement of ALK1 activity using BMP9 as the agonist. The C2C12 cell line was selected for the measurement of ALK2 activity using BMP6 as the agonist. […] The kinase activity was determined by the status of SMD 1/5/8 phosphorylation stimulated by the agonist. […]
Test readout: IC50 (nM)
Report the value in nM with no unit label.

Completed entries (count: 3):
>>> number("C[S+](=O)([O-])c1cccc(-c2cnn3cc(-c4ccc(OC5(CN6CCCCC6)COC5)cc4)cnc23)c1")
230
>>> number("C[S+](=O)([O-])c1cccc(-c2cnn3cc(-c4ccc(OC5(Cn6ccnc6)COC5)cc4)cnc23)c1")
350
>>> number("CC(O)c1cccc(-c2cnn3cc(-c4ccc(OC5(CN6CCCC6)CC5)cc4)cnc23)c1 (stereo not shown)")
370

Below: the item to evaluate.
Request: # value lookup — system ALK2 (Mus musculus), readout IC50, item C[C@@H]1CNC[C@H](C)N1c1ccc(-c2cnc3c(-c4ccc(CO)c5ccccc45)cnn3c2)cc1
Response: 47

* * *

molecular target: ALK1 (Homo sapiens); assay: TR-FRET enzymatic ALK kinase assay, ALK1
Sequence (P37023 22-503): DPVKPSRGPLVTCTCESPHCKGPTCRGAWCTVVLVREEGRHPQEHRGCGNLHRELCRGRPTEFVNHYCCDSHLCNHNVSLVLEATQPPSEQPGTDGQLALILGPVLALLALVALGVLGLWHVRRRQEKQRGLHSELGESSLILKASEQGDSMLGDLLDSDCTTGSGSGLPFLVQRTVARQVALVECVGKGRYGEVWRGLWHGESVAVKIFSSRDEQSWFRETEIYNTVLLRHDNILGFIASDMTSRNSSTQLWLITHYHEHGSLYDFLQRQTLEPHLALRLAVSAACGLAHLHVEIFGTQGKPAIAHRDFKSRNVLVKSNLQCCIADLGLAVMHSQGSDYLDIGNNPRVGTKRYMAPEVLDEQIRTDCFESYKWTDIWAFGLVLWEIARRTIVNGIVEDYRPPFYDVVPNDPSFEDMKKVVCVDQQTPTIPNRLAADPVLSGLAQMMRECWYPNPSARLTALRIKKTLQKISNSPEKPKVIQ
Test readout: pIC50
Answer as the number alone; pIC50 is minus log10 of concentration in mol/L.

>>> number("NC(=O)c1ccc(-c2cnn3cc(-c4ccc(N5CCNCC5)cc4)cnc23)c2ccccc12 [Compound 2]")
7.74
>>> number("NS(=O)(=O)c1ccc(-c2cnn3cc(-c4ccc(C5(O)CCNCC5)cc4)cnc23)c2ccccc12 [Compound 66]")
6.74
>>> number("CC(O)c1cccc(-c2cnn3cc(-c4ccc(CCN5CCNCC5)cc4)cnc23)c1 (stereo not drawn) [Compound 171]")
5.96
>>> number("NS(=O)(=O)c1ccc(-c2cnn3cc(-c4ccc(CCN5CCCCC5)cc4)cnc23)c2ccccc12 [Compound 54]")
6.42
>>> number("C[C@@H](O)c1cccc(-c2cnn3cc(-c4ccc(OCCN5CCCC5)cc4)cnc23)c1 [Compound 160]")
5.82

Request: Lab note: need pIC50 for CN(C)C(=O)c1cccc2c(-c3cnn4cc(-c5ccc(N6CCNCC6)cc5)cnc34)cccc12 [Compound 8] on ALK1 (Homo sapiens), anyone have it?
Response: 5.09

Request: Missing value: pIC50, ALK1 (Homo sapiens), entry CN1CCC(c2ccc(-c3cnc4c(-c5ccc(S(N)(=O)=O)c6ccccc56)cnn4c3)cc2)CC1 [Compound 80] . Fill in?
Response: 6.80

Request: Request - read-out pIC50 | tested on ALK1 (Homo sapiens) | compound C[C@@H]1CNC[C@H](C)N1c1ccc(-c2cnc3c(-c4ccc(Cl)c5ccccc45)cnn3c2)cc1 [Compound 44]
Response: 6.41

* * *

# IC50 per entry
target: ALK4 (Homo sapiens, UniProt P36896); assay: TR-FRET enzymatic ALK kinase assay, ALK4
Sequence (P36896 24-505): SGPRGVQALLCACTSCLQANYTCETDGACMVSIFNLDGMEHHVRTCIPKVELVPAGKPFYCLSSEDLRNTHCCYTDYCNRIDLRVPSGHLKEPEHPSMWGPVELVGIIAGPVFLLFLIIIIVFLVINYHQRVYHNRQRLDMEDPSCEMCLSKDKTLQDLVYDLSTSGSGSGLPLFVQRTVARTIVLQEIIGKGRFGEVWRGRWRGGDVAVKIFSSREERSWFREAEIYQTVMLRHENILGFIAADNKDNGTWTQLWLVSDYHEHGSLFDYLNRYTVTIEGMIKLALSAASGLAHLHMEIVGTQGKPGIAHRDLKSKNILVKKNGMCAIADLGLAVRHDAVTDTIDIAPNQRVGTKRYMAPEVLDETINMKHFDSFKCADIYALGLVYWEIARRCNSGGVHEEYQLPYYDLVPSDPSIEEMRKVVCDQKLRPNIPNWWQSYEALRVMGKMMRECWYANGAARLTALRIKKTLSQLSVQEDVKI

>>> result("CC(O)c1cccc(-c2cnn3cc(-c4ccc(N5[C@H](C)CNC[C@@H]5C)cc4)cnc23)c1 (stereo partly shown)")
"4.4 µM"
>>> result("C[C@@H]1CNC[C@H](C)N1c1ccc(-c2cnc3c(-c4ccc(S(N)(=O)=O)c(N)c4)cnn3c2)cc1")
"> 10 µM"
>>> result("C[C@@H]1CNC[C@H](C)N1c1ccc(-c2cnc3c(-c4ccc(F)c(-c5nnn[nH]5)c4)cnn3c2)cc1")
"> 10 µM"

# context switch: different compound, same IC50
Request: Return IC50 measured with ALK4 (Homo sapiens, UniProt P36896) given this compound: CN1CCN(c2ccc(-c3cnc4c(-c5ccc(S(N)(=O)=O)c6ccccc56)cnn4c3)cc2)CC1
Response: > 10 µM

* * *

Molecular target: ALK1 (Bos taurus, UniProt A4FUX2)
Construct: The BAOEC cell line was employed for the measurement of ALK1 activity using BMP9 as the agonist; host or cells: BAOEC (bovine aortic endothelial cells)
Sequence (A4FUX2 23-503): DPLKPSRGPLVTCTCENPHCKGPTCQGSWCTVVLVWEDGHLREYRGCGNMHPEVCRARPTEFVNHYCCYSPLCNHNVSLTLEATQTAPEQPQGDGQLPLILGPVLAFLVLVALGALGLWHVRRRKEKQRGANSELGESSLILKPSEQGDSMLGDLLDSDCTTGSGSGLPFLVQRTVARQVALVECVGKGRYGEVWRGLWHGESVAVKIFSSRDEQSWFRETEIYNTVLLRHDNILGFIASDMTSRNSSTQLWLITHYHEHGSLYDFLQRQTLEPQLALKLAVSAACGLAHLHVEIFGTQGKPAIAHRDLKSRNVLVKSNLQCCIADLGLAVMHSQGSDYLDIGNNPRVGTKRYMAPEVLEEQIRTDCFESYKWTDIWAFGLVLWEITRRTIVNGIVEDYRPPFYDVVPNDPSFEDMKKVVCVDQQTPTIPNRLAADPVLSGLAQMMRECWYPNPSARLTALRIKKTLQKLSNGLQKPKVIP
Assay: HTRF pSMAD1 cell-based ALK1 assay (BAOEC cells, BMP9 as agonist)
Design: species or system Bovine
Below, each of the compounds is paired with its reported IC50 value.
Respond numerically; units are nM and should not be typed.

Completed entries (count: 7):
>>> number("C[C@@H]1CNC[C@H](C)N1c1ccc(-c2cnc3c(-c4ccc(CO)c5ccccc45)cnn3c2)cc1")
33
>>> number("C[S+](=O)([O-])c1cccc(-c2cnn3cc(-c4ccc(OC5(Cn6ccnc6)COC5)cc4)cnc23)c1")
140
>>> number("C[C@@H]1CNC[C@H](C)N1c1ccc(-c2cnc3c(-c4cccc(C(C)(C)O)c4)cnn3c2)cc1")
14
>>> number("C[C@@H]1CNC[C@H](C)N1c1ccc(-c2cnc3c(-c4cccc(S(C)(=O)=O)c4)cnn3c2)cc1")
190
>>> number("C[C@@H]1CNC[C@H](C)N1c1ccc(-c2cnc3c(-c4cccc([S+](=O)([O-])C5CC5)c4)cnn3c2)cc1")
850
>>> number("CC(O)c1cccc(-c2cnn3cc(-c4ccc(N5[C@H](C)CNC[C@@H]5C)cc4)cnc23)c1 (some centres unmarked)")
100
>>> number("C[S+](=O)([O-])c1cccc(-c2cnn3cc(-c4ccc(OC5(CN6CCCCC6)COC5)cc4)cnc23)c1")
180

Next up:
Request: Item CC[S+](=O)([O-])c1cccc(-c2cnn3cc(-c4ccc(N5[C@H](C)CNC[C@@H]5C)cc4)cnc23)c1 has what recorded IC50?
Response: 71

* * *

target: UniProtKB Q04771; assay: TR-FRET enzymatic ALK kinase assay, ALK2
Sequence (Q04771 21-509): as the sequence (P37172 21-509) above, with V1M, Q10P, I121L, E162D, S310P counted along it
Test readout: IC50 (µM)
Give the quantity in µM, number only.

The cases that follow already have their IC50 on record.
>>> number("C[C@H](O)c1cccc(-c2cnn3cc(-c4ccc(OC5(CN6CCC7(CC6)CNC7)CC5)cc4)cnc23)c1")
0.052
>>> number("CN1CCN(c2ccc(-c3cnc4c(-c5ccc(S(N)(=O)=O)c6ccccc56)cnn4c3)cn2)CC1")
0.56
>>> number("CC(O)c1cccc(-c2cnn3cc(-c4ccc(OC5(CN6CCNCC6)CC5)cc4)cnc23)c1 (stereo not drawn)")
0.085
>>> number("c1cc(-c2nn[nH]n2)cc(-c2cnn3cc(-c4ccc(CCN5CCCCC5)cc4)cnc23)c1")
0.014
>>> number("N/C(=N/O)c1ccc(-c2cnn3cc(-c4ccc(N5CCNCC5)cc4)cnc23)cc1")
0.038
>>> number("CCS(=O)(=O)c1cccc(-c2cnn3cc(-c4ccc(CCN5CCCCC5)cc4)cnc23)c1")
0.066

Request: Fill in: IC50 of O=[S+]([O-])(c1cccc(-c2cnn3cc(-c4ccc(CN5CCCCC5)cc4)cnc23)c1)C1CC1 is ___
Response: 0.066

Request: Data request, read-out IC50, for C[C@@H]1CNC[C@H](C)N1c1ccc(-c2cnc3c(-c4cccc(CCO)c4)cnn3c2)cc1
Response: 0.066

Request: GET /values?readout=IC50&item= COc1ccc2ccccc2c1-c1cnn2cc(-c3ccc(N4[C@H](C)CNC[C@@H]4C)cc3)cnc12
Response: 0.249

Request: // query IC50 value for entry Cc1cc(S(N)(=O)=O)ccc1-c1cnn2cc(-c3ccc(N4[C@H](C)CNC[C@@H]4C)cc3)cnc12
Response: 3.04

Request: Field request: IC50 | item: C[S+](=O)([O-])c1cccc(-c2cnn3cc(-c4ccc(OC5(CN6CCCCC6)COC5)cc4)cnc23)c1
Response: 0.029

Request: Given the compound NS(=O)(=O)c1ccc(-c2cnn3cc(-c4ccc(C5(O)CCNCC5)nc4)cnc23)c2ccccc12 , what is its reported IC50?
Response: 0.35

Request: IC50 lookup needed for NC(c1cccc(-c2cnn3cc(-c4ccc(OC5(CN6CCC(O)C6)CC5)cc4)cnc23)c1)C(F)(F)F (stereo not drawn) , thanks.
Response: 0.12
